Provenance of the data: PubChem BioAssay AID624330

target: Rac GTPase-activating protein 1 (Homo sapiens); experiment: blockers of MgcRacGAP-driven Rac1 GTP hydrolysis – biochemical, ADP Hunter fluorescence, primary and confirmatory, confirmation (AID 624330); settings: MgcRacGAP-stimulated Rac1 GTP hydrolysis, at 30 µM, active compounds read high, GST-tagged Rac1 F28L mutant substrate;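 further: fluorescence reports GDP produced by GAP-driven GTP hydrolysis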
About 2,100 (0.62%) of roughly 340,000 compounds were called active. A selection follows. Entries with a potency or affinity are not part of this list.
READOUT_NAME: inhibition (%)
// units = %; emit number, no label

Record CC(C)CCc1noc(CN2CCC(C(=O)N3CCOCC3)CC2)n1 has Rac GTPase-activating protein 1 (Homo sapiens) inhibition equal to 7.77

Record CC12CCC3c4ccc(O)cc4CCC3C1CCC2=O (stereo not given) has Rac GTPase-activating protein 1 (Homo sapiens) inhibition equal to 5.82

Record CC(C)c1ccc(NC(=O)NC2CCN(CC(=O)Nc3cccc4ccccc34)CC2)cc1 has Rac GTPase-activating protein 1 (Homo sapiens) inhibition equal to 13.1

Record COC(=O)[C@H](CCSC)NC(=O)Cn1cnc2c(OCc3ccccc3)ncnc21 has Rac GTPase-activating protein 1 (Homo sapiens) inhibition equal to 5.04

Record O=C1C=C(c2ccccc2)C(O)(c2ccccc2)C1 (stereo not given) has Rac GTPase-activating protein 1 (Homo sapiens) inhibition equal to 4.42

Record CCCc1ccc2oc(C(=O)NCCN3CCCC(C(N)=O)C3)c(C)c2c1 (stereo not given) has Rac GTPase-activating protein 1 (Homo sapiens) inhibition equal to -11.6

Record CCN(CCCCCCN)c1ccc2c(=O)[nH][nH]c(=O)c2c1 has Rac GTPase-activating protein 1 (Homo sapiens) inhibition equal to 3.58

Record CC(C)CN(C(=O)COC(=O)/C=C/c1ccc(Cl)c(Cl)c1)c1c(N)n(Cc2ccccc2)c(=O)[nH]c1=O has Rac GTPase-activating protein 1 (Homo sapiens) inhibition equal to 10.7

Record COC(=O)c1ccc(CNC(=O)COC(=O)/C=C/c2cc(OC)c(OC)c(OC)c2)cc1 has Rac GTPase-activating protein 1 (Homo sapiens) inhibition equal to -11.7

Record CC(C(=O)Nc1ccccc1-c1ccccc1)N1CCCCC1 (stereo not given) has Rac GTPase-activating protein 1 (Homo sapiens) inhibition equal to 0.68

Record COC(=O)c1ccc(CNC(=O)COC(=O)/C=C/c2ccc(OC)c(OC)c2)cc1 has Rac GTPase-activating protein 1 (Homo sapiens) inhibition equal to 1.48

Record NCC12CC3CC(CC(O)(C3)C1)C2 has Rac GTPase-activating protein 1 (Homo sapiens) inhibition equal to 9.89

Record O=C(COc1ccccc1)N1CCCC1 has Rac GTPase-activating protein 1 (Homo sapiens) inhibition equal to 2.28

Record COc1cc(/C=C/C(=O)OCC(=O)NCc2ccccc2OC)ccc1O has Rac GTPase-activating protein 1 (Homo sapiens) inhibition equal to -4.08

Record COc1cc(/C=C/C(=O)O)ccc1O has Rac GTPase-activating protein 1 (Homo sapiens) inhibition equal to 22.1

Record CCN(C(=O)COC(=O)/C=C/c1ccc(OC)c(OC)c1)c1c(N)n(Cc2ccccc2)c(=O)[nH]c1=O has Rac GTPase-activating protein 1 (Homo sapiens) inhibition equal to 4.28

Record COC(=O)C(Cc1ccccc1)NC(=O)CNS(=O)(=O)c1ccc(Br)cc1 (stereo not given) has Rac GTPase-activating protein 1 (Homo sapiens) inhibition equal to -0.24

Record Cc1cc(C)n2nc(C(=O)OCC(=O)N(C)CC(=O)Nc3ccccc3Cl)nc2n1 has Rac GTPase-activating protein 1 (Homo sapiens) inhibition equal to 1.5

Record CCOc1ccccc1N1CC(C(=O)Nc2cc(Cl)ccc2C)CC1=O (stereo not given) has Rac GTPase-activating protein 1 (Homo sapiens) inhibition equal to -1.6

Record CCCCC[C@H]1CN(Cc2ccccc2)C(=O)[C@@H]1CC(=O)NCc1ccccc1 has Rac GTPase-activating protein 1 (Homo sapiens) inhibition equal to 8.29

Record CC1(NC(=O)N2CCCCC2)CCS(=O)(=O)C1 (stereo not given) has Rac GTPase-activating protein 1 (Homo sapiens) inhibition equal to 6.45

Record COc1ccnc(NCc2cccc(C(F)(F)F)c2)c1C#N has Rac GTPase-activating protein 1 (Homo sapiens) inhibition equal to -0.963

Record CN(C(=O)OC(C)(C)C)[C@H](Cc1ccccc1)C(=O)N[C@H]1CCCCNC1=O has Rac GTPase-activating protein 1 (Homo sapiens) inhibition equal to 4.78

Record COc1ccc(NC(C)=O)cc1C has Rac GTPase-activating protein 1 (Homo sapiens) inhibition equal to 16.4

Record COc1ccccc1N=Nc1c(C)n[nH]c1C has Rac GTPase-activating protein 1 (Homo sapiens) inhibition equal to 7.74

Record O=C1c2ccccc2NC(c2ccc([N+](=O)[O-])cc2)N1O (stereo not given) has Rac GTPase-activating protein 1 (Homo sapiens) inhibition equal to 4.29

Record Cc1c(N=Cc2nc3ccccc3[nH]2)c(=O)n(-c2ccccc2)n1C has Rac GTPase-activating protein 1 (Homo sapiens) inhibition equal to 17.9

Record C[C@]12CC[C@@H]3c4ccc(O)cc4CC[C@H]3[C@@H]1CCC2=O has Rac GTPase-activating protein 1 (Homo sapiens) inhibition equal to 9.39

Record CCCCN(CC)CCCNC(=O)CC1Oc2ccccc2NC1=O (stereo not given) has Rac GTPase-activating protein 1 (Homo sapiens) inhibition equal to 0.11

Record CCOC(=O)Cc1csc(SCC(=O)NC2CCS(=O)(=O)C2)n1 (stereo not given) has Rac GTPase-activating protein 1 (Homo sapiens) inhibition equal to 0.45

Record CN1c2ccc(Cl)cc2C(=O)NC1c1ccc([N+](=O)[O-])s1 (stereo not given) has Rac GTPase-activating protein 1 (Homo sapiens) inhibition equal to 11.4

Record O=c1[nH]cc(S(=O)(=O)N2CCN(c3ccc(F)cc3)CC2)c(=O)[nH]1 has Rac GTPase-activating protein 1 (Homo sapiens) inhibition equal to 2.66

Record CS(=O)(=O)c1ccc(Cl)c(NC(=O)CN2CCN(C(=O)c3cccs3)CC2)c1 has Rac GTPase-activating protein 1 (Homo sapiens) inhibition equal to 3.52

Record O=C(NCc1nnc(SCC(=O)N2CCOCC2)o1)c1c(F)cccc1F has Rac GTPase-activating protein 1 (Homo sapiens) inhibition equal to 7.33

Record Cc1c(N(C)C)c(=O)n(-c2ccccc2)n1C has Rac GTPase-activating protein 1 (Homo sapiens) inhibition equal to 3.4

Record Cc1c(C(c2ccc(N(C)C)cc2)c2c(C)n(C)n(-c3ccccc3)c2=O)c(=O)n(-c2ccccc2)n1C has Rac GTPase-activating protein 1 (Homo sapiens) inhibition equal to -5.89

Record CCC(C)C1=CC(=Nc2c(C)n(C)n(-c3ccccc3)c2=O)C=C(C(C)CC)C1=O (stereo not given) has Rac GTPase-activating protein 1 (Homo sapiens) inhibition equal to 9.72

Record CCN(CC)c1ccc(S(=O)(=O)N2CCOCC2)cc1NC(=O)CN1CCc2ccccc2C1 has Rac GTPase-activating protein 1 (Homo sapiens) inhibition equal to 6.44

Record CSCCC(NC(=O)c1ccccc1Cl)C(=O)NCc1ccncc1 (stereo not given) has Rac GTPase-activating protein 1 (Homo sapiens) inhibition equal to 6.71

Record CCS(=O)(=O)N1CCN(CC2CC3C=CC2C3)CC1 (stereo not given) has Rac GTPase-activating protein 1 (Homo sapiens) inhibition equal to 3.64

Record CCOc1ncccc1C(=O)Nc1cccc(S(=O)(=O)N2CCOCC2)c1 has Rac GTPase-activating protein 1 (Homo sapiens) inhibition equal to 3.19

Record CC1=CC(=Nc2c(C)n(C)n(-c3ccccc3)c2=O)C=C(C)C1=O has Rac GTPase-activating protein 1 (Homo sapiens) inhibition equal to -4.18

Record O=C(O)CC/C(=N/NC(=O)CNC(=O)c1ccc2c(c1)OCCO2)c1ccccc1 has Rac GTPase-activating protein 1 (Homo sapiens) inhibition equal to 3.51

Record COc1ccc(NC(=S)N2CCNC(=O)C2CC(=O)Nc2ccc(C)cc2)cc1 (stereo not given) has Rac GTPase-activating protein 1 (Homo sapiens) inhibition equal to 15.2

Record Nc1ccccc1C=C1Cc2ccccc2C1=O has Rac GTPase-activating protein 1 (Homo sapiens) inhibition equal to 3.76

----------
Can you tell me inhibition for the items I'm about to list?
target: Rac GTPase-activating protein 1 (Homo sapiens) (UniProt Q9H0H5); experiment: blockers of MgcRacGAP-driven Rac1 GTP hydrolysis – biochemical, ADP Hunter fluorescence, primary and confirmatory, confirmation (AID 624330); settings: MgcRacGAP-stimulated Rac1 GTP hydrolysis, at 30 µM, active compounds read high, GST-tagged Rac1 F28L mutant substrate;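 further: fluorescence reports GDP produced by GAP-driven GTP hydrolysis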
Sequence (Q9H0H5 whole entry, looked up): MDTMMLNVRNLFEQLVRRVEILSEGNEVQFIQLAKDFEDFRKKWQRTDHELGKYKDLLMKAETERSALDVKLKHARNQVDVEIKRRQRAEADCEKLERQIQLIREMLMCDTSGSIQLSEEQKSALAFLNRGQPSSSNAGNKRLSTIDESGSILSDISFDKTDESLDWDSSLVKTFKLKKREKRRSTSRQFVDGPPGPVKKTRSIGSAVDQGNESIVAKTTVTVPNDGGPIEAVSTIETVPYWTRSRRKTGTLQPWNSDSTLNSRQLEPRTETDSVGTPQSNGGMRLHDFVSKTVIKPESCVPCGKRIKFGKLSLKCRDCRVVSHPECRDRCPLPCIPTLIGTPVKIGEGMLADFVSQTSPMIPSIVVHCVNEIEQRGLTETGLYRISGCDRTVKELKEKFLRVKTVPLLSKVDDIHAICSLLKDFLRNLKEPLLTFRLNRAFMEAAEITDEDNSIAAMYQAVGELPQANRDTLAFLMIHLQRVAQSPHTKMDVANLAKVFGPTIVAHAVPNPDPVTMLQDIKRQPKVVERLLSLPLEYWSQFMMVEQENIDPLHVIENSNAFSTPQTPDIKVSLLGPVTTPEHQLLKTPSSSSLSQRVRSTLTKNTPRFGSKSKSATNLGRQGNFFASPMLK
Hit rate of the full screen: of about 340,000 compounds, about 2,100 (0.62%) were called active. Not all results are given here. Measured potencies and affinities stand elsewhere.
// units = %; emit number, no label

Looking up CC(C)CC(O)(CC(C)C)C(=O)NNc1ccccc1 , I found its inhibition recorded as 11.2

Looking up O=C(O)CCC(NS(=O)(=O)c1ccc(N2CCCC2=O)cc1)C(=O)O (configuration not stated) , I found its inhibition recorded as -1.24

Looking up O=C(NCc1ccccc1)c1onc(CS(=O)(=O)c2ccccn2)c1C(=O)NCc1ccccc1 , I found its inhibition recorded as -5.99

Looking up Cc1ccc(-n2ccnc(SCC(=O)NC3CCCCC3)c2=O)cc1F , I found its inhibition recorded as 7.99

Looking up C=C(c1ccccc1Cl)[n+]1ccccc1 , I found its inhibition recorded as -11.7

Looking up NNC(=S)NCCc1ccccc1 , I found its inhibition recorded as 6.19

Looking up CCCOc1ccc(OCCN2CCCC(C)C2)cc1 (configuration not stated) , I found its inhibition recorded as 20

Looking up Cc1cc(C)c(C(=O)N2CCCC(CNC(=O)C3(c4ccc(Cl)cc4)CC3)C2)c(=O)[nH]1 (configuration not stated) , I found its inhibition recorded as 6.3

Looking up CCOc1cc(N2CCOCC2)c(OCC)cc1NC(=O)c1ccc2ncsc2c1 , I found its inhibition recorded as 9.53

Looking up Cc1ccc(C)c(NS(=O)(=O)c2cc3c4c(c2)CC(=O)N4CCC3)c1 , I found its inhibition recorded as 12.2

Looking up CCCCNc1c(-c2ccc(-c3ccc(C(C)=O)cc3)c(OC)c2)nc2cc(C)ccn12 , I found its inhibition recorded as 4.91

Looking up COC(=O)c1ccc(Nc2nc(-c3ccncc3)nc3ccccc23)cc1 , I found its inhibition recorded as 4.52

Looking up CNc1ccc(/C=C/C(=O)c2cccc3ccccc23)cc1[N+](=O)[O-] , I found its inhibition recorded as 1.28

Looking up Cc1cc(C[n+]2ccsc2N)c2ncccc2c1 , I found its inhibition recorded as 4.36

Looking up Cc1c(-c2ccccc2)nc2ccccc2c1C(=O)Oc1ccc([N+](=O)[O-])cc1 , I found its inhibition recorded as -7.74

Looking up CCOc1ccc(CN(C)C(=O)CN2C(=O)NC3(CCCc4ccccc43)C2=O)cc1 (configuration not stated) , I found its inhibition recorded as 13

Looking up CCOC(=O)C1(C)C=C(Nc2ccc(NC(C)=O)cc2)C(=O)N1c1ccc(NC(C)=O)cc1 (configuration not stated) , I found its inhibition recorded as 4.87

Looking up COc1ccc(C(=O)N2c3ccccc3CC2C)cc1OC (configuration not stated) , I found its inhibition recorded as 3.63

Looking up CSC1=C(C#N)C(=O)NC(c2ccccc2O)S1 (configuration not stated) , I found its inhibition recorded as 25.9

Looking up O=C(OCC(=O)N1CCc2ccccc2C1)c1c(F)cccc1Cl , I found its inhibition recorded as 4.76

Looking up O=C(Nc1ccc(C(F)(F)F)cc1)C1CC(=O)N(c2ccc3c(c2)OCCO3)C1 (configuration not stated) , I found its inhibition recorded as 11.2

Looking up C#CCN1C=CC(=O)[C@@H](OC(=O)Nc2ccc(C)cc2)[C@H]1c1ccccc1Br , I found its inhibition recorded as -0.32
